The measured values listed here are drawn from PubChem BioAssay.

Assay: viability profiling in RPMI8226 myeloma cells – cell-based, resazurin fluorescence, basal, 24 h, PK04 Diversity Set, profiling panel (AID 1180);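 note: RPMI8826 multiple myeloma cell line at 5000 cells per well; test concentration not given here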
Details: higher = more signal
Listed below: z-score values for each entry.

### Prompt I have this molecule here, CC(C)C(CO)N1C(=O)[C@@H]2[C@H]3C(=O)OCC=C[C@H]3OC23C=CCN(CCN2CCOCC2)C(=O)[C@@H]13 (some centres not stated) , and I need its recorded z-score.
### Response -0.371

### Prompt I have this molecule here, CCCN1C(=O)[C@@H]2Cc3c([nH]c4ccccc34)[C@@H](c3cccc(O)c3)N2C1=O , and I need its recorded z-score.
### Response 0.0074

### Prompt I have this molecule here, C#CCOC(=O)N[C@H](C=CCCCC)c1ccccc1 , and I need its recorded z-score.
### Response -0.137

### Prompt I have this molecule here, CCCC=C(CCC)[C@@H](NC(=O)Cc1ccccc1)c1ccc(C(=O)OC)cc1 , and I need its recorded z-score.
### Response -0.702

### Prompt I have this molecule here, CC(C)CNC(=O)[C@@]1(C)c2ccccc2C(=O)N(Cc2ccccc2)[C@H]1c1ccc(CO)cc1 , and I need its recorded z-score.
### Response -0.551

### Prompt I have this molecule here, NC(=O)[C@H]1[C@@H]2C(=O)O[C@@H](c3ccccc3)[C@@H](c3ccccc3)N2[C@@H](c2ccc(O)cc2)[C@]12C(=O)Nc1ccc(C#CC3(O)CCCCCC3)cc12 , and I need its recorded z-score.
### Response 0.159

### Prompt I have this molecule here, C=CCOC(=O)[C@@H]1[C@H]2C(=O)O[C@H](c3ccccc3)[C@H](c3ccccc3)N2[C@H](c2ccc(OCCOC(=O)[C@@H]3C[C@@H]4C(=O)N5CCC[C@H]5C(=O)N4[C@@H]3c3cccc(OCCO)c3)cc2)[C@@]12C(=O)Nc1ccc(I)cc12 , and I need its recorded z-score.
### Response 0.281
